molecular target: PD-1 (human, UniProt Q15116 25-167, limits assumed); assay: HTRF
Sequence (Q15116 25-167 limits assumed): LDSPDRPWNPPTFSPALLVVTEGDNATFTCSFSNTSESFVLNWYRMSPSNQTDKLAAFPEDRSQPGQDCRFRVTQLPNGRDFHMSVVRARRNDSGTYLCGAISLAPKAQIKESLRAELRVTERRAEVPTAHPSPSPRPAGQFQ
experimental.endpoint: PD1 Binding

Incoming: Could you tell me which PD1 Binding is on file for PD1-IL2-R02-B05 (scFv) QVQLVQSGAEVKKPGASVKVSCKASGYTFTNYYIHWVRQAPGQGLEWMGIINPRAGYTSYALKFQGRVTMTRDTSTSTVYMELSSLRSEDTAVYYCAGGWLDWGQGTLVTVSSASGGGGSGGGGSGGGGSHASDIQMTQSPSSLSASVGDRVTITCRASQSISSWLAWYQQKPGKAPKLLIYAASSLQSGVPSRFSGSGSGTDFTLTISSLQPEDFATYYCQQSFTMPITFGQGTRLEIK ?
Outgoing: 1660

Incoming: Could you tell me which PD1 Binding is on file for PD1-R07-A05 (scFv) scFv: QVQLVQSGAEVKKPGASVKVSCKASGYTFTTYYVHWVRQAPGQGLEWMGIINPSGGSTSYAQNFQGRVTMTRDTSTSTVYMELSSLRSEDTAVYYCASGWDVWGQGTTVTVSSASGGGGSGGGGSGGGGSHASEIVMTQSPATLSVSPGERATLSCRASQSVNTYLAWYQQKPGQAPRLLIYGASTRATGIPARFSGSGSGTEFTLTISSLQSEDFAVYYCQQYGSSPVTFGQGTRLEIK ?
Outgoing: 653

Incoming: Could you tell me which PD1 Binding is on file for PD1-IL2-R07-A04 (scFv) QVQLVQSGAEVKKPGASVKVSCKASGYTFTDYYMHWVRQAPGQGLEWMGIINPRAGYTSYALKFQGRVTMTRDTSTSTVYMELSSLRSEDTAVYYCTSGMDVWGQGTLVTVSSASGGGGSGGGGSGGGGSHASDIQMTQSPSSLSASVGDRVTITCRASQSISTWLAWYQQKPGKAPKLLIYAASSLQSGVPSRFSGSGSGTDFTLTISSLQPEDFATYYCQQSYSFPVTFGQGTKVEIK ?
Outgoing: 730
